test system: MDA-MB-435 melanoma; assay: NCI-60 one-dose screen, 48 h; conditions: 10 µM unless noted
About 83,000 compounds went through this panel and 20% of them were active in at least one assay; those are over-represented in the sample as a whole. Activity calls are given as the source filed them. The calls were made as follows: active = growth percent below 10; inactive = the rest.
Classes to choose from: Y = active, N = inactive

Q: // return assay outcome for Nc1nc(SCC2(CCl)COC2)c2[nH]cnc2n1
A: N

Q: Field: outcome | Entry: O=C(O)c1ccc(NC(=O)c2ccc(Nc3ccnc(C(F)(F)F)c3)cc2)cc1
A: N

Q: Look up the recorded call for O=C1/C(=C/c2ccc([N+](=O)[O-])s2)Oc2ccc(Br)cc21 in this test.
A: Y

Q: // outcome(item) with item = CC(=O)n1c2ccccc2c2ccccc21
A: N

Q: Dear colleague, could you share the recorded outcome for CN1CCCC1c1cccnc1 (stereo unspecified) when you have a moment?
A: N

Q: Outcome? O=C1OCC/C1=C\OCCCO/C=C1\CCOC1=O
A: N

Q: Which outcome was assigned to Nc1ccc2c3c(cccc13)-c1ccccc1-2 in this test?
A: N

Q: Would you mind telling me which call this test gave O=C1NCN(c2ccccc2)C12CCN(CCCC(c1ccc(F)cc1)c1ccc(F)cc1)CC2 ?
A: N

Q: Which result was noted for this compound in the test: C=C(C)[C@H]1CC/C(C)=C/CC[C@]2(C)O[C@H]2CC/C(COC(C)=O)=C\C1=O
A: N

Q: Returns: the outcome recorded for COc1cc(-c2cc(C(=O)Nc3nc4ccccc4s3)nc3cc(-c4ccccc4)nn23)cc(OC)c1OC in this assay.
A: N

Q: Please state the recorded outcome for this compound: COc1ccc(-c2noc(N)c2-c2cc(OC)c3c(c2)OCO3)cc1
A: Y
